system: HCT-15; test: In vitro cytotoxic activity against HCT15 (colon cancer) cell lines by using SRB assay; assay type: functional, cell-based; settings: Homo sapiens
Entries annotated with measured pIC50
In simple prose, pIC50 is minus the logarithm base ten of a concentration in moles per litre.

Known pIC50 results, listed for orientation:
[[record]]
cpd_smiles = "COc1cccc2c1C(=O)c1c(O)c3c(c(O)c1C2=O)C[C@@](O)(C(=O)CO)C[C@@H]3O[C@H]1C[C@H](N)[C@H](O)[C@H](C)O1"
experimental_target = "HCT-15"
recorded_metric = "pIC50"
numeric_value = 7.00

[[record]]
cpd_smiles = "O=C1c2cccnc2C(=O)c2ncc(CBr)cc21"
experimental_target = "HCT-15"
recorded_metric = "pIC50"
numeric_value = 6.40

[[record]]
cpd_smiles = "CC(C)NC(=O)OCc1cnc2c(c1)C(=O)c1cccnc1C2=O"
experimental_target = "HCT-15"
recorded_metric = "pIC50"
numeric_value = 7.70

[[record]]
cpd_smiles = "Cc1cnc2c(c1)C(=O)c1cccnc1C2=O"
experimental_target = "HCT-15"
recorded_metric = "pIC50"
numeric_value = 6.46


Query :: Recorded pIC50 of `O=C1c2cccnc2C(=O)c2ncc(CO)cc21` , please.
Result :: 6.40

---

tested on: SF-295; assay: In vitro cytotoxic activity against SF-295 (CNS carcinoma) cell lines by using SRB assay; assay type: functional, cell-based; conditions: Homo sapiens
recorded metric: log10(IC50) (log10 of the value in nM)
Field: value | Transform: log10 | Quantity: IC50 | Unit: nM

[[record]]
cpd_smiles = "O=C1c2cccnc2C(=O)c2ncc(CO)cc21"
recorded_metric = "log10(IC50)"
numeric_value = 2.48

[[record]]
cpd_smiles = "O=C1c2cccnc2C(=O)c2ncc(CBr)cc21"
recorded_metric = "log10(IC50)"
numeric_value = 2.70

[[record]]
cpd_smiles = "COc1cccc2c1C(=O)c1c(O)c3c(c(O)c1C2=O)C[C@@](O)(C(=O)CO)C[C@@H]3O[C@H]1C[C@H](N)[C@H](O)[C@H](C)O1"
recorded_metric = "log10(IC50)"
numeric_value = 1.54


Query :: Recorded log10(IC50) of `Cc1cnc2c(c1)C(=O)c1cccnc1C2=O` , please.
Result :: 2.40

Query :: Another compound to look at: `CC(C)NC(=O)OCc1cnc2c(c1)C(=O)c1cccnc1C2=O`
Result :: 2.00

---

tested on: SK-OV-3; assay: In vitro cytotoxic activity against SK-OV-3 (ovarian carcinoma) cell lines by using SRB assay; assay type: functional, cell-based; conditions: Homo sapiens
recorded metric: pIC50
In simple prose, pIC50 is minus the logarithm base ten of a concentration in moles per litre.

Known pIC50 results, listed for orientation:
[[record]]
cpd_smiles = "O=C1c2cccnc2C(=O)c2ncc(CBr)cc21"
numeric_value = 6.52

[[record]]
cpd_smiles = "Cc1cnc2c(c1)C(=O)c1cccnc1C2=O"
numeric_value = 7.40

[[record]]
cpd_smiles = "O=C1c2cccnc2C(=O)c2ncc(CO)cc21"
numeric_value = 6.70

[[record]]
cpd_smiles = "COc1cccc2c1C(=O)c1c(O)c3c(c(O)c1C2=O)C[C@@](O)(C(=O)CO)C[C@@H]3O[C@H]1C[C@H](N)[C@H](O)[C@H](C)O1"
numeric_value = 7.70


Then there is this compound:
Query :: Recorded pIC50 of `CC(C)NC(=O)OCc1cnc2c(c1)C(=O)c1cccnc1C2=O` , please.
Result :: 7.70

Source listed as ChEMBL document CHEMBL1130647.
